- Tested on: NCI-H716 (human colorectal cancer cell)
- procedureText: Cell proliferation assay, CellTiter Glo (Table 9)
- Format: cell-based
- measurementParameters: Homo sapiens, NCI-H716, 96 hrs
IC50: recorded values
Answer with the number, then the unit.

INSERT INTO results (compound, testsystem, measvalue) VALUES
  ('CCN1CCN(c2ccc(Nc3cc(N(C)C(=O)Nc4c(Cl)c(OC)cc(OC)c4Cl)ncn3)cc2)CC1 [BGJ398, Infigratinib]', 'NCI-H716 (human colorectal cancer cell)', '4.6 nM');

Return reported IC50; argument: CCN1CCN(c2ccc(Nc3ncc4cc(-c5cc(OC)cc(OC)c5Cl)c5nncn5c4n3)cc2)CC1 [Compound 4]
0.5 nM

---

IC50: recorded values
- testSystem: FGFR1 (Homo sapiens (Human), UniProt P11362)
- Sequence (P11362 22-822): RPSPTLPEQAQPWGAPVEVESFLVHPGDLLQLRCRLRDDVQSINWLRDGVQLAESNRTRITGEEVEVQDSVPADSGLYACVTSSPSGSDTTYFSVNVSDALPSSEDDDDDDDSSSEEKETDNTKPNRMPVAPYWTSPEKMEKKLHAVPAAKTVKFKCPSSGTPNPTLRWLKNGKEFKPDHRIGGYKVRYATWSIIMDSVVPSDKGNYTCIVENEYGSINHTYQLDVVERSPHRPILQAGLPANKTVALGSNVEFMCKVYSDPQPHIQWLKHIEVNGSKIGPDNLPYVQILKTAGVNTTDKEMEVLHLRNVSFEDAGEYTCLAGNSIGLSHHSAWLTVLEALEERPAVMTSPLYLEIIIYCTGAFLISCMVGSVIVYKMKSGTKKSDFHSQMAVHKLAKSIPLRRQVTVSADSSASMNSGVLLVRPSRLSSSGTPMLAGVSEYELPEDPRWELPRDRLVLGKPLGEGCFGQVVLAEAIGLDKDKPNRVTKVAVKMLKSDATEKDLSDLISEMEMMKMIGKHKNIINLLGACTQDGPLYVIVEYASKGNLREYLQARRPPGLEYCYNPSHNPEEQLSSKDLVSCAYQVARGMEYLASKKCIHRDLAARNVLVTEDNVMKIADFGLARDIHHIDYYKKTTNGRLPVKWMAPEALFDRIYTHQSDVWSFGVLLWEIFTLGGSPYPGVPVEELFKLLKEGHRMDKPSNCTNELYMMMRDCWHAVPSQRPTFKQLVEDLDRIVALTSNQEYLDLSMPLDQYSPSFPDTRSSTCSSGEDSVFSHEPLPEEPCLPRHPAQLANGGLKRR
- procedureText: Kinase assay Method 1, mobility shift assay
- measurementParameters: read-out: IC50(nM) value of compounds FGFR1; mobility shift assay, ATP at Km; class symbols

Consider the worked cases shown below.
INSERT INTO assay_data (molecule, parameter, measvalue) VALUES
  ('C=CC(=O)Nc1ccc(Cc2nnc3c(-c4cc(OC)cc(OC)c4Cl)cc4cnc(NCCN5CCOCC5)nc4n23)cc1 [Compound 86]', 'IC50', '> 10 nM'),
  ('CC[N+]1([O-])CCN(c2ccc(Nc3ncc4cc(-c5cc(OC)cc(OC)c5Cl)c5nncn5c4n3)cc2)CC1 [Compound 99]', 'IC50', '> 10 nM'),
  ('COc1cc(OC)c(Cl)c(-c2cc3cnc(Nc4ccc(N5CC[N+]6(O)CCC[C@@H]6C5)cc4)nc3n3cnnc23)c1 (stereo partly shown) [Compound 100]', 'IC50', '< 1 nM'),
  ('COc1cc(OC)c(Cl)c(-c2cc3cnc(Nc4ccc(N5CCN(CCO)CC5)cc4)nc3n3cnnc23)c1 [Compound 32]', 'IC50', '< 1 nM'),
  ('COc1cc(OC)c(Cl)c(-c2cc3cnc(Nc4ccc(N5CCC(N(C)C)CC5)cc4)nc3n3cnnc23)c1 [Compound 14]', 'IC50', '< 1 nM'),
  ('C=CC(=O)N1CCN(CCc2nnc3c(-c4cc(OC)cc(OC)c4Cl)cc4cnc(NC)nc4n23)CC1 [Compound 114]', 'IC50', '> 100 nM');

Return reported IC50; argument: COc1cc(OC)c(Cl)c(-c2cc3cnc(Nc4ccc(N5CCN(C6COC6)CC5)cc4)nc3n3cnnc23)c1 [Compound 13]
< 1 nM

---

- Test system: RT-112 (human bladder cancer cell)
- procedureText: Cell proliferation assay, CellTiter Glo (Table 9)
- Type: cell-based
- measurementParameters: Homo sapiens, RT-112, 96 hrs
IC50: recorded values
Give a bare numeral; the unit nM is implied.

INSERT INTO measurements (smilesrepr, parameter, measvalue) VALUES
  ('CCN1CCN(c2ccc(Nc3cc(N(C)C(=O)Nc4c(Cl)c(OC)cc(OC)c4Cl)ncn3)cc2)CC1', 'IC50', 4.4);

Now consider a different compound.
Return reported IC50; argument: CCN1CCN(c2ccc(Nc3ncc4cc(-c5cc(OC)cc(OC)c5Cl)c5nncn5c4n3)cc2)CC1
1

---

- testSystem: FGFR3 (Homo sapiens (Human))
- Sequence (P22607 23-806): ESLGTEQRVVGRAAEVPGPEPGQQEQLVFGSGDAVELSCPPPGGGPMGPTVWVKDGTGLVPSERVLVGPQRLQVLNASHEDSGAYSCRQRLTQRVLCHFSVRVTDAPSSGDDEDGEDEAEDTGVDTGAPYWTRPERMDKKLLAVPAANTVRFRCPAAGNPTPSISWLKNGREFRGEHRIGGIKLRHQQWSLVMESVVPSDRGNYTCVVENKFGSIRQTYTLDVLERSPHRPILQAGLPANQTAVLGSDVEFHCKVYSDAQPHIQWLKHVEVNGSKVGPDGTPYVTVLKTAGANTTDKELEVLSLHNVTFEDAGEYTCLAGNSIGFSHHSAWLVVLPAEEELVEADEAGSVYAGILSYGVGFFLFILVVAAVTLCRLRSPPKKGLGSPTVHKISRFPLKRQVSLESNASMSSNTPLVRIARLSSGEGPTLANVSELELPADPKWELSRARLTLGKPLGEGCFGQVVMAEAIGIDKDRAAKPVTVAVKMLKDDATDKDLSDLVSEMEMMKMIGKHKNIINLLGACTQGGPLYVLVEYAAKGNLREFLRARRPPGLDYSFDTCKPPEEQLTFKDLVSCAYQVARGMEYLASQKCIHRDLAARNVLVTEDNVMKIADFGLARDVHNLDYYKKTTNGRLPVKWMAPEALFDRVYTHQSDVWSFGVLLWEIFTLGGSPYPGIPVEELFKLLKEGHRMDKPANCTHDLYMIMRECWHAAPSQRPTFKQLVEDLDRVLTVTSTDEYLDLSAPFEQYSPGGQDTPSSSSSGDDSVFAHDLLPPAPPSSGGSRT
- procedureText: Kinase assay Method 2, isotope-labeled 33P-ATP method
- Type: biochemical
- measurementParameters: ATP at Km, filter-binding, read-out: IC50(nM) value of compounds, FGFR3
parameter: IC50 (nM)
Give a bare numeral; the unit nM is implied.

Return reported IC50; argument: CCN1CCN(c2ccc(Nc3ncc4cc(-c5cc(OC)cc(OC)c5Cl)c5nncn5c4n3)cc2)CC1
1.34

---

- testSystem: UniProt P22455
- procedureText: Kinase assay Method 1, mobility shift assay
- Assay type: biochemical
- measurementParameters: ATP at Km, numeric values, read-out: IC50(nM) value of compounds FGFR4
So basically: is IC50 under 60 nM? Then true (1). Not under? Then false (0).

INSERT INTO assay_data (smilesrepr, testsystem, assignedlabel) VALUES
  ('COc1cc(OC)c(Cl)c(-c2cc3cnc(Nc4ccc(C5CCNCC5)cc4)nc3n3cnnc23)c1', 'UniProt P22455', 'true (1)');

Hi there! Is IC50 for C=CC(=O)N1CCN(CCCc2nc3c(-c4cc(OC)cc(OC)c4Cl)cc4cnc(NC)nc4n3n2)CC1 below 60 nM, do you know?
true (1)

Hi there! Is IC50 for COc1cc(OC)c(Cl)c(-c2cc3cnc(Nc4ccc(N5C[C@@H](C)N[C@@H](C)C5)c(F)c4)nc3n3cnnc23)c1 below 60 nM, do you know?
true (1)

Hi there! Is IC50 for COc1cc(OC)c(Cl)c(-c2cc3cnc(Nc4ccc5c(c4)CCNC5)nc3n3cnnc23)c1 below 60 nM, do you know?
true (1)

Hi there! Is IC50 for COc1cc(OC)c(Cl)c(-c2cc3cnc(Nc4ccc(N5C[C@@H](C)N[C@@H](C)C5)cc4)nc3n3cnnc23)c1 below 60 nM, do you know?
true (1)

Hi there! Is IC50 for C=CC(=O)N1CCN(Cc2nc3c(-c4c(Cl)c(OC)cc(OC)c4Cl)cc4cnc(NC)nc4n3n2)CC1 below 60 nM, do you know?
false (0)

Hi there! Is IC50 for COc1cc(OC)c(Cl)c(-c2cc3cnc(Nc4ccc(CN5CCN(C)CC5)cc4)nc3n3cnnc23)c1 below 60 nM, do you know?
true (1)

Hi there! Is IC50 for COc1cc(OC)c(Cl)c(-c2cc3cnc(Nc4ccc(N5CCC(N6CCOCC6)CC5)cc4)nc3n3cnnc23)c1Cl below 60 nM, do you know?
true (1)

Hi there! Is IC50 for COc1cc(OC)c(Cl)c(-c2cc3cnc(Nc4ccc(N5CCN6CCC[C@@H]6C5)cc4)nc3n3cnnc23)c1 below 60 nM, do you know?
true (1)

Hi there! Is IC50 for CCN1CCN(c2ccc(Nc3ncc4cc(-c5cc6[nH]c(C)nc6cc5Cl)c5nncn5c4n3)cc2)CC1 below 60 nM, do you know?
false (0)

Hi there! Is IC50 for CCN1CCN(c2ccc(Nc3ncc4cc(-c5cc(OC)cc(OC)c5Cl)c5nncn5c4n3)cc2)CC1 below 60 nM, do you know?
true (1)

---

- testSystem: FGFR4 (Homo sapiens (Human), UniProt P22455)
- Sequence (P22455 22-802): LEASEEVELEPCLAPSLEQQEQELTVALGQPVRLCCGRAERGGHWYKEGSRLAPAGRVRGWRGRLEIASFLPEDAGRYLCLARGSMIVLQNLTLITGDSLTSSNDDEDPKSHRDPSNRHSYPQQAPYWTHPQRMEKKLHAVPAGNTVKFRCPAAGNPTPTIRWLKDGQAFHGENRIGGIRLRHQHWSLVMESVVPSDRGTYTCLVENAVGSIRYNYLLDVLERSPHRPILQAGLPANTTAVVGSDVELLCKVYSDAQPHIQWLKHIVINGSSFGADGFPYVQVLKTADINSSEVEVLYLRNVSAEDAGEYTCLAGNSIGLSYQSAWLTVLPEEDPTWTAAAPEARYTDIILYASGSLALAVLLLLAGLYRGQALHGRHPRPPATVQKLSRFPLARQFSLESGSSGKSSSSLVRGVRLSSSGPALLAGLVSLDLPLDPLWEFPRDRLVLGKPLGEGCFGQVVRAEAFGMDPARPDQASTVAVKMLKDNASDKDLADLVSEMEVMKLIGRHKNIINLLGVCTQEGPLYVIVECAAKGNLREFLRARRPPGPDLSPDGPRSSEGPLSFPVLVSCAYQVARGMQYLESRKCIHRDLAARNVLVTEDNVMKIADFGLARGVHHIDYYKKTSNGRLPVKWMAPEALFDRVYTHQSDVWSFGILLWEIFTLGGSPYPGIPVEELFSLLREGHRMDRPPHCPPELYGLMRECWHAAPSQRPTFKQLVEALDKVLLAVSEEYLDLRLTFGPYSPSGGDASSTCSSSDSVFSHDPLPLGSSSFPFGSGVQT
- procedureText: Kinase assay Method 1, mobility shift assay
- Format: biochemical
- measurementParameters: ATP at Km, numeric values, read-out: IC50(nM) value of compounds FGFR4
parameter: IC50 (nM)
Give a bare numeral; the unit nM is implied.

Consider the worked cases shown below.
INSERT INTO measurements (smilesrepr, parameter, measvalue) VALUES
  ('CCN1CCC(c2ccc(Nc3ncc4cc(-c5cc(OC)cc(OC)c5Cl)c5nncn5c4n3)cc2)CC1', 'IC50', 60),
  ('CCN1CCN(Cc2ccc(Nc3ncc4cc(-c5cc(OC)cc(OC)c5Cl)c5nncn5c4n3)cn2)CC1', 'IC50', 288),
  ('Cc1nc2cc(Cl)c(-c3cc4cnc(Nc5ccc(N6CCC(N(C)C)CC6)cc5)nc4n4cnnc34)cc2[nH]1', 'IC50', 600),
  ('COc1cc(OC)c(Cl)c(-c2cc3cnc(Nc4ccc(N5CCN6CCC[C@@H]6C5)cc4)nc3n3cnnc23)c1Cl', 'IC50', 14),
  ('COc1cc(OC)c(Cl)c(-c2cc3cnc(Nc4ccc(N5CC6CCC(C5)N6)cc4)nc3n3cnnc23)c1', 'IC50', 42);

Now consider a different compound.
Return reported IC50; argument: Cc1nc2cc(Cl)c(-c3cc4cnc(Nc5ccc(N6CCOCC6)cc5)nc4n4cnnc34)cc2[nH]1
191
